- tgt: cGMP-inhibited 3',5'-cyclic phosphodiesterase 3A (Homo sapiens)
- Sequence (Q14432 whole entry): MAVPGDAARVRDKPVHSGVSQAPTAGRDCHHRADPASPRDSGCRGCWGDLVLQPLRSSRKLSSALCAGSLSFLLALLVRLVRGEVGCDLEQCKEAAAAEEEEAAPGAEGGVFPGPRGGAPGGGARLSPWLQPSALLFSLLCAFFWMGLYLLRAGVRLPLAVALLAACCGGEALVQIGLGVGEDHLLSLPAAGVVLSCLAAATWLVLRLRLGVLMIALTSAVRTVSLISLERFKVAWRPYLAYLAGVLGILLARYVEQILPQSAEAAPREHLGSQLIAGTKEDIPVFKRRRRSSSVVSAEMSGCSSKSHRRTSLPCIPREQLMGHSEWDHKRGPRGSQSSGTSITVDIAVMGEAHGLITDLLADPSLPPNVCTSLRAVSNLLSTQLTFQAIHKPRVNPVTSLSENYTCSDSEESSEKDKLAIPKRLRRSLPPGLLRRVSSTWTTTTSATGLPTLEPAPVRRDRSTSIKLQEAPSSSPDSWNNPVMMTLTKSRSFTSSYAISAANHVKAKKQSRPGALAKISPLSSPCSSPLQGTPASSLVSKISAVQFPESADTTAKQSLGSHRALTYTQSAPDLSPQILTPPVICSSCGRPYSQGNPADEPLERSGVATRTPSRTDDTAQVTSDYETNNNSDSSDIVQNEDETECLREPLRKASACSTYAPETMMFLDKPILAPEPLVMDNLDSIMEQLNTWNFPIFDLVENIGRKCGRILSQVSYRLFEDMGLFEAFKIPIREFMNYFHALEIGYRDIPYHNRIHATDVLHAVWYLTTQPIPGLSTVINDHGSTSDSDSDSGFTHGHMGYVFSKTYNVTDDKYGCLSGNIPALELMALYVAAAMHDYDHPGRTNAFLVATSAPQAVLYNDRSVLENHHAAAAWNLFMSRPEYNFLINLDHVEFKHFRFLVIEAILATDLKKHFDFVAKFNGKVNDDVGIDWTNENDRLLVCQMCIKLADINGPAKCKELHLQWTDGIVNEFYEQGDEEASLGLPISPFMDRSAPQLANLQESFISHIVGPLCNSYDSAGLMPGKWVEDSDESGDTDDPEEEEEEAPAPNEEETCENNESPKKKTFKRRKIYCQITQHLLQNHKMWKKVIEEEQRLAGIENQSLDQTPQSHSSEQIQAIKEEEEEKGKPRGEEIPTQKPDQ
assayReadout: IC50

Asked: Missing value: IC50, cGMP-inhibited 3',5'-cyclic phosphodiesterase 3A (Homo sapiens), entry COCc1nc2cnc3cc(-c4c(C)noc4C)c(OC[C@H]4CCNC4)cc3c2n1[C@H](C)c1ccccc1 . Fill in?
Given back: > 100 µM

----------
- tgt: Substance-P receptor (Homo sapiens)
- Sequence (P25103 whole entry): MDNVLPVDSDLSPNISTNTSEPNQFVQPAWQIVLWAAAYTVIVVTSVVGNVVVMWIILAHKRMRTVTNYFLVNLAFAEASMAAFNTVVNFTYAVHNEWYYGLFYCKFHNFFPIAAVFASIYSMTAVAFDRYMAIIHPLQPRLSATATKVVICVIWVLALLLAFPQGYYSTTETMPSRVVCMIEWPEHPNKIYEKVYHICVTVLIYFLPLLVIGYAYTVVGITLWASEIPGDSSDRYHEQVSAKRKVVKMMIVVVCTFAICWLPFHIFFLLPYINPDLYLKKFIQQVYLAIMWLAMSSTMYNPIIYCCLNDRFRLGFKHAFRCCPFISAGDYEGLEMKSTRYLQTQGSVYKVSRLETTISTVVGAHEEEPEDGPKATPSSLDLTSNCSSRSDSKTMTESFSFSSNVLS
pIC50: −log10 of the molar value.
assayReadout: pIC50

Asked: Give pIC50 (Substance-P receptor (Homo sapiens)) of the following molecule: COCc1nc2cnc3cc(-c4c(C)noc4C)c(OC[C@H]4CCNC4)cc3c2n1[C@H](C)c1ccccc1
Given back: < 4.60
